Reference source for all entries: patent US12655148B2

assayed-target: FXR receptor (Homo sapiens)
Construct: expressed in transfected cells; host or cells: 293T cells
Sequence (Q96RI1 whole entry): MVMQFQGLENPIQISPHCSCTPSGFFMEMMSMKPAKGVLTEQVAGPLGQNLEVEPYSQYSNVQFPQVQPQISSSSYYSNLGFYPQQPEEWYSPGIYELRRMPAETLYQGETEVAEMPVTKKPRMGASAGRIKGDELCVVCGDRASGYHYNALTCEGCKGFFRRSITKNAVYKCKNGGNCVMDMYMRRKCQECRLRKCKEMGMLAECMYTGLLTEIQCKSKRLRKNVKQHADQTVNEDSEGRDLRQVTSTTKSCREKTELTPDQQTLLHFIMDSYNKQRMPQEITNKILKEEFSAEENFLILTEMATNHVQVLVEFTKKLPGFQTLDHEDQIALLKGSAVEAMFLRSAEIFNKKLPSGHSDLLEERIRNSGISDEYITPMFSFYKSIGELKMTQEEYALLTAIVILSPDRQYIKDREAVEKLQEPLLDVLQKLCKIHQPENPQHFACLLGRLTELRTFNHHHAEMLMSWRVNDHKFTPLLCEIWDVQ
measurement-protocol: FXR activity at the cellular level (FXRE luciferase reporter in 293T cells)
Format: cell-based
run-parameters: 293T cells, luciferase reporter; read-out: FXR activity at the celluar level EC50
pEC50: −log10 of the molar value.
measured-property: pEC50

Some solved entries appear below for comparison.
Cc1ccccc1-c1noc(C2CC2)c1CO[C@H]1C[C@H]2CC[C@@H](C1)N2c1ccc(-c2noc(=O)[nH]2)c(F)c1 :: 9.00 to 10.00
O=c1[nH]c(-c2ccc(N3[C@@H]4CC[C@H]3C[C@@H](OCc3c(-c5c(F)cccc5F)noc3C3CC3)C4)nc2)no1 :: 9.00 to 10.00
O=c1[nH]c(-c2ccc(N3[C@@H]4CC[C@H]3C[C@@H](OCc3c(-c5ccccc5OC(F)(F)F)noc3C3CC3)C4)cc2F)no1 :: 9.00 to 10.00
O=c1[nH]c(-c2ccc(N3[C@@H]4CC[C@H]3C[C@H](OCc3c(-c5c(Cl)cccc5Cl)noc3C3CC3)C4)cc2)no1 :: < 7.00
O=c1[nH]c(-c2ccc(N3[C@@H]4CC[C@H]3C[C@@H](OCc3c(-c5ccccc5OC(F)(F)F)noc3C3CC3)C4)nc2)no1 :: 9.00 to 10.00

For `O=c1[nH]c(-c2ccc(N3[C@@H]4CC[C@H]3C[C@@H](OCc3c(-c5ccccc5OC(F)F)noc3C3CC3)C4)nc2)no1` , what is its reported pEC50?
8.00 to 9.00
